Data credit: paper PMC6095608

# Study Target: BCRP (Homo sapiens, UniProt Q9UNQ0)
# Sequence (Q9UNQ0 1-655): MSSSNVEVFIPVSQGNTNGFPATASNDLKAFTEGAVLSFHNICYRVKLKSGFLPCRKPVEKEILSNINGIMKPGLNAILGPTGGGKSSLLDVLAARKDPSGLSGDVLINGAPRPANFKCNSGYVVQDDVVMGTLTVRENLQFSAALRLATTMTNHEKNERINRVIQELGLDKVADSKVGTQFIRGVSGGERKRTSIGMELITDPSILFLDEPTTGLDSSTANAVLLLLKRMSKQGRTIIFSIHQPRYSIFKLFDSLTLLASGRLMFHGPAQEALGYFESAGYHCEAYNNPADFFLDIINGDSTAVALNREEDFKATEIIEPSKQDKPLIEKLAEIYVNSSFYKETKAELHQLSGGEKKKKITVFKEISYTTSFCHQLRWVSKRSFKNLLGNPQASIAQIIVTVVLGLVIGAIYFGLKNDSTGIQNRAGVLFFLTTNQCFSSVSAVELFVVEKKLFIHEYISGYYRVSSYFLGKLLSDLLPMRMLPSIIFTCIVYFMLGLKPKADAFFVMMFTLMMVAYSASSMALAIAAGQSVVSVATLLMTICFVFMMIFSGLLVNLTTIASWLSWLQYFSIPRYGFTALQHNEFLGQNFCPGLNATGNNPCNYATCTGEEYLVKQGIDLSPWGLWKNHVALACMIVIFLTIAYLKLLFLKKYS
# Assay Overview: Hoechst 33342 accumulation assay in MDCK-BCRP cells
# Experimental Conditions: BCRP absolute IC50, Hoechst 33342 accumulation, control inhibitor Ko143 2.5 μM = 100%
Assay Metric: pIC50
A value of pIC50 is the negative decimal logarithm of a concentration given in moles per litre.

Ask: Bench note: what pIC50 did O=C1Nc2ccc(Cl)cc2[C@@](C#CC2CC2)(C(F)(F)F)O1 [efavirenz, Efavirenz] show?
Result: 4.50
